# Phytotoxicity, Wheat values compiled below
# System: Wheat
# assayComment: Pre-emergence treatment, phytotoxicity to wheat
# Format: in vivo
# conditionParameters: 500 g/ha, 4 weeks after spraying, scale 0 to 10 (0: no effects, 10: complete death)
Format: numeric value only, no unit, no commentary.

CC1(COCc2c(F)cccc2F)CC(c2ccccc2F)=NO1 (stereo not drawn) [Compound 4]    0

Memo: Cc1ccccc1C1=NOC(C)(COCc2ccccc2F)C1 (stereo not drawn) [Reference D] , reported Phytotoxicity, Wheat: 0

Memo: Cc1ccc(C2=NOC(C)(COCc3c(F)cccc3F)C2)cc1 (stereo not drawn) [Reference G] , reported Phytotoxicity, Wheat: 0

---

# Tested on: Soybean
# assayComment: Post-emergence treatment, phytotoxicity to soybean
# Assay type: in vivo
# conditionParameters: post-emergence (about 3 leaf stage), 1,000 g/ha, 4 weeks after spraying, scale 0 to 10 (0: no effects, 10: complete death)
measuredQuantity: Phytotoxicity, Soybean
Format: numeric value only, no unit, no commentary.

For Cc1ccccc1C1=NOC(C)(COCc2ccccc2F)C1 (stereo not drawn) [Reference D] on Soybean, measured Phytotoxicity, Soybean was 0

For Cc1cccc(C2=NOC(C)(COCc3c(F)cccc3F)C2)c1 (stereo not drawn) [Reference F] on Soybean, measured Phytotoxicity, Soybean was 0

For Cc1ccccc1C1=NOC(C)(COCc2ccccc2)C1 (stereo not drawn) [Reference C] on Soybean, measured Phytotoxicity, Soybean was 0

---

# System: Wheat
# assayComment: Post-emergence treatment, phytotoxicity to wheat
# Type: in vivo
# conditionParameters: post-emergence (about 3 leaf stage), 1,000 g/ha, 4 weeks after spraying, scale 0 to 10 (0: no effects, 10: complete death)
# Phytotoxicity, Wheat values compiled below
Format: numeric value only, no unit, no commentary.

See these solved cases before continuing.
Cc1ccc(C2=NOC(C)(COCc3c(F)cccc3F)C2)cc1 (stereo not drawn) [Reference G]    0
CC1(COCc2c(F)cccc2F)CC(c2ccccc2F)=NO1 (stereo not drawn)    1
CC1(COCc2c(F)cccc2F)CC(c2ccccc2Cl)=NO1 (stereo not drawn)    1
Cc1ccccc1C1=NOC(C)(COCc2ccccc2)C1 (stereo not drawn) [Reference C]    0

For CC1(COCc2c(F)cccc2Cl)CC(c2ccccc2Cl)=NO1 (stereo not drawn) [Reference B] on Wheat, measured Phytotoxicity, Wheat was 0

For CC1(COCc2ccccc2F)CC(c2ccccc2[N+](=O)[O-])=NO1 (stereo not drawn) [Reference A] on Wheat, measured Phytotoxicity, Wheat was 0

For Cc1ccccc1C1=NOC(C)(COCc2ccccc2F)C1 (stereo not drawn) [Reference D] on Wheat, measured Phytotoxicity, Wheat was 0

For CC1(COCc2c(F)cccc2F)CC(c2ccccc2C(F)(F)F)=NO1 (stereo not drawn) on Wheat, measured Phytotoxicity, Wheat was 0

For Cc1ccccc1C1=NOC(C)(COCc2c(F)cccc2F)C1 (stereo not drawn) on Wheat, measured Phytotoxicity, Wheat was 0

For Cc1ccccc1C1=NOC(C)(COCc2c(F)cccc2Cl)C1 (stereo not drawn) [Reference E] on Wheat, measured Phytotoxicity, Wheat was 0

For CC1(COCc2c(F)cccc2Cl)CC(c2ccccc2)=NO1 (stereo not drawn) [Reference H] on Wheat, measured Phytotoxicity, Wheat was 0

For Cc1cccc(C2=NOC(C)(COCc3c(F)cccc3F)C2)c1 (stereo not drawn) [Reference F] on Wheat, measured Phytotoxicity, Wheat was 0

// provenance: patent US9439432B2
